B1: TPR 5TU (parent)
chain: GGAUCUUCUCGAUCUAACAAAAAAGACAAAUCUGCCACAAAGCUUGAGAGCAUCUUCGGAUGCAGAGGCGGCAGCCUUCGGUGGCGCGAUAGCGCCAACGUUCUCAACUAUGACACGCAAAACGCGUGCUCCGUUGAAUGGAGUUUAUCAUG

# Variants of: B1
# method_summary: polymerase ribozyme fitness, log enrichment relative to wild type (log ratio); higher = more active; in vitro selection for triplet polymerase activity
Variants at the floor of the assay were thinned out.
readout: polymerase ribozyme fitness (log ratio)
Numbers only.

A47C C57G G58C | 0.275
U31G C85U | 0.998
A60G C96A A121U | -0.437
U53A U144A | -1.56
U61G G83A | -1.01
A20C A37C A40C G58C C95U | -4.12

Give measured polymerase ribozyme fitness (log ratio) for every item shown.
1. C76U A122U
2. C57A C93A
3. G83C U101C A119G A122U U135C U145A
4. A40U A89C

1. 0.0697
2. -2.04
3. -3.51
4. -0.129
